Data provenance is the NIST ThermoML archive (doi:10.1016/j.fluid.2007.10.004).

test_context: 333 K, Capillary rise
Quick reference: surface tension liquid-gas of the listed items.

molecule: CCCCCCn1cc[n+](C)c1.[I-] [1-hexyl-3-methylimidazolium iodide]
unit_label: mN/m
surface tension liquid-gas: 40.8
//
molecule: CCCCCCn1cc[n+](C)c1.[Cl-] [1-hexyl-3-methylimidazolium chloride]
unit_label: mN/m
surface tension liquid-gas: 39.8
//
molecule: CCCCn1cc[n+](C)c1.F[P-](F)(F)(F)(F)F [1-butyl-3-methylimidazolium hexafluorophosphate]
unit_label: mN/m
surface tension liquid-gas: 44.9
//
molecule: CCCCCCCC[n+]1ccn(C)c1.[Cl-] [1-methyl-3-octylimidazolium chloride]
unit_label: mN/m
surface tension liquid-gas: 30
//
molecule: CCCCCCCC[n+]1ccn(C)c1.F[B-](F)(F)F [1-methyl-3-octylimidazolium tetrafluoroborate]
unit_label: mN/m
surface tension liquid-gas: 28.9
//
molecule: CCCCCCn1cc[n+](C)c1.F[B-](F)(F)F [1-hexyl-3-methylimidazolium tetrafluoroborate]
unit_label: mN/m
surface tension liquid-gas: 37.5
//
molecule: CCCCCCn1cc[n+](C)c1.F[P-](F)(F)(F)(F)F [1-hexyl-3-methylimidazolium hexafluorophosphate]
unit_label: mN/m
surface tension liquid-gas: 40.8
//
molecule: CCCCn1cc[n+](C)c1.F[B-](F)(F)F [1-butyl-3-methylimidazolium tetrafluoroborate]
unit_label: mN/m
surface tension liquid-gas: 41.5
//
molecule: CCCCn1cc[n+](C)c1.[I-] [1-butyl-3-methylimidazolium iodide]
unit_label: mN/m
surface tension liquid-gas: 50.3
//
molecule: CCCCn1cc[n+](C)c1.[Cl-] [1-butyl-3-methylimidazolium chloride]
unit_label: mN/m
surface tension liquid-gas: 46
